Molecular target: CDK2 (UniProt P24941)
Assay: Enzyme Assay
Recorded endpoint: Ki (nM)
Answers are plain numbers, in nM.

Enquiry: Value lookup for Ki; key = O=C1CCCCn2cc(c3cccnc32)C2=C(C(=O)NC2=O)c2cn(c3ncccc23)CCCC1
Return: 1230
